Test system: KRAS patient-derived spheroids with HUVEC/MSC, viability
Assay: Anticancer human tumor 941728-121-R-J1-PDC patient-derived lung adenocarcinoma cell line growth inhibition [KRAS2]
Settings: second compound 0.1 µM; first compound 1 µM; stronger effect = lower value
value-kind: viability, T/C (%)
A number alone suffices; assume %.

Answered examples (3):
{"molecule": "COc1cc2nccc(Oc3ccc(NC(=O)C4(C(=O)Nc5ccc(F)cc5)CC4)cc3)c2cc1OC + CNCc1ccccc1-c1csc(C(C)Nc2nc(C)nc3cc(OC)c(OC)cc23)c1", "reported-result": 39.7}
{"molecule": "CCN1CCN(Cc2ccc(Nc3ncc(F)c(-c4cc(F)c5nc(C)n(C(C)C)c5c4)n3)nc2)CC1 + CNCc1ccccc1-c1csc(C(C)Nc2nc(C)nc3cc(OC)c(OC)cc23)c1", "reported-result": 53}
{"molecule": "COc1cc(Nc2ncc3c(n2)-c2ccc(Cl)cc2C(c2c(F)cccc2OC)=NC3)ccc1C(=O)O + COc1cc2nc(C)nc(NC(C)c3cc(N)cc(C(F)(F)F)c3)c2cc1OC1CCOC1", "reported-result": 47.7}

Now look at this one.
Request: State its viability, T/C: CC1(C)CCC(CN2CCN(c3ccc(C(=O)NS(=O)(=O)c4ccc(NCC5CCOCC5)c([N+](=O)[O-])c4)c(Oc4cnc5[nH]ccc5c4)c3)CC2)=C(c2ccc(Cl)cc2)C1 + CNCc1ccccc1-c1csc(C(C)Nc2nc(C)nc3cc(OC)c(OC)cc23)c1
Result: 39.2

---

System: KRAS patient-derived spheroids with HUVEC/MSC, viability
Experiment: Anticancer human tumor 941728-121-R-J1-PDC cell line growth inhibition [KRAS2];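 note: spheroids exposed to agents for seven days before readout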
Settings: curve of first compound; second compound 1 µM
pIC50: −log10 of the molar value.
value-kind: pIC50

Answered examples (5):
{"molecule": "CCN1CCN(Cc2ccc(Nc3ncc(F)c(-c4cc(F)c5nc(C)n(C(C)C)c5c4)n3)nc2)CC1 + CNCc1ccccc1-c1csc(C(C)Nc2nc(C)nc3cc(OC)c(OC)cc23)c1", "target-of-assay": "KRAS patient-derived spheroids with HUVEC/MSC, viability", "pIC50": "> 8.50"}
{"molecule": "Cn1nccc1Nc1nccc(-c2cc3c(s2)C(C)(C)N(CCN2CCOCC2)C3=O)n1 + C=CC(=O)N1CCN(c2nc(OCC3CCCN3C)nc3c2CCN(c2cccc4cccc(C)c24)C3)CC1CC#N", "target-of-assay": "KRAS patient-derived spheroids with HUVEC/MSC, viability", "pIC50": "> 7.50"}
{"molecule": "CC(=O)OC12COC1CC(O)C1(C)C(=O)C(O)C3=C(C)C(OC(=O)C(O)C(NC(=O)OC(C)(C)C)c4ccccc4)CC(O)(C(OC(=O)c4ccccc4)C21)C3(C)C (centres undefined) + COc1cc2nc(C)nc(NC(C)c3cc(N)cc(C(F)(F)F)c3)c2cc1OC1CCOC1", "target-of-assay": "KRAS patient-derived spheroids with HUVEC/MSC, viability", "pIC50": "> 8.00"}
{"molecule": "COc1cc(Nc2ncc3c(n2)-c2ccc(Cl)cc2C(c2c(F)cccc2OC)=NC3)ccc1C(=O)O + COc1cc2nc(C)nc(NC(C)c3cc(N)cc(C(F)(F)F)c3)c2cc1OC1CCOC1", "target-of-assay": "KRAS patient-derived spheroids with HUVEC/MSC, viability", "pIC50": "> 7.50"}
{"molecule": "CC1OCC2(CCN(c3cnc(Sc4ccnc(N)c4Cl)c(N)n3)CC2)C1N (centres undefined) + C=CC(=O)N1CCN(c2nc(OCC3CCCN3C)nc3c2CCN(c2cccc4cccc(C)c24)C3)CC1CC#N", "target-of-assay": "KRAS patient-derived spheroids with HUVEC/MSC, viability", "pIC50": "> 7.50"}

Now look at this one.
Request: State its pIC50: CC(=O)OC12COC1CC(O)C1(C)C(=O)C(O)C3=C(C)C(OC(=O)C(O)C(NC(=O)OC(C)(C)C)c4ccccc4)CC(O)(C(OC(=O)c4ccccc4)C21)C3(C)C (centres undefined) + C=CC(=O)N1CCN(c2nc(OCC3CCCN3C)nc3c2CCN(c2cccc4cccc(C)c24)C3)CC1CC#N
Result: > 8.00
